# Tested System: 20S proteasome ChT-L activity (Homo sapiens)
# Construct: This assay measures the ChT-L protease activity in cultured cells; endogenous in cells; host or cells: MCF-7 and PC-3 cells
# Test Method Notes: Cell-based 20S proteasome ChT-L inhibition assay in PC-3 cells
# Test Parameters: PC-3 cells; ChT-L activity, LLVY-R110 substrate
Threshold check on IC50: strictly below 30 µM is 1 (yes); on or above 30 µM is 0 (no).

Enquiry: Confirm or reject: IC50 of O=[N+]([O-])C(=Cc1ccccc1)CO [Compound 2a, 2-Nitro-3-phenylprop-2-en-1-ol] lies strictly below 30 µM
Return: 1 (yes)

Enquiry: Confirm or reject: IC50 of CN(C)c1ccc(C=C[N+](=O)[O-])cc1 [Compound 1e] lies strictly below 30 µM
Return: 0 (no)

Enquiry: Confirm or reject: IC50 of O=[N+]([O-])C(=Cc1ccc(Cl)cc1)Cc1ccccc1 [Compound 4b, 3-(4-chlorophenyl)-2-nitroallylbenzene] lies strictly below 30 µM
Return: 0 (no)

Enquiry: Confirm or reject: IC50 of CN(C)c1ccc(C=C(Cc2ccccc2)[N+](=O)[O-])cc1 [Compound 4e] lies strictly below 30 µM
Return: 0 (no)

Enquiry: Confirm or reject: IC50 of O=[N+]([O-])C(=Cc1ccccc1)Cc1ccccc1 [Compound 4a, 3-(phenyl)-2-nitroallylbenzene] lies strictly below 30 µM
Return: 0 (no)

Enquiry: Confirm or reject: IC50 of O=[N+]([O-])C=Cc1ccccc1 [Compound 1a, (2-nitrovinyl)benzene] lies strictly below 30 µM
Return: 0 (no)

Enquiry: Confirm or reject: IC50 of COc1ccc(C=C(CC(C)C)[N+](=O)[O-])cc1 [Compound 6b] lies strictly below 30 µM
Return: 1 (yes)

Enquiry: Confirm or reject: IC50 of Cc1ccc(C=C(CO)[N+](=O)[O-])cc1 [Compound 2c, 2-Nitro-3-(4-tolyl)prop-2-en-1-ol] lies strictly below 30 µM
Return: 1 (yes)

Enquiry: Confirm or reject: IC50 of COc1ccc(C=C(Cc2ccccc2)[N+](=O)[O-])cc1 [Compound 4d, 3-(4-methoxyphenyl)-2-nitroallylbenzene] lies strictly below 30 µM
Return: 0 (no)

Enquiry: Confirm or reject: IC50 of O=[N+]([O-])C=Cc1ccc(Cl)cc1 [Compound 1b, 1-chloro-4-(2-nitrovinyl)benzene] lies strictly below 30 µM
Return: 0 (no)

Enquiry: Confirm or reject: IC50 of O=[N+]([O-])C(=Cc1ccc(Cl)cc1)CO [Compound 2b, 2-Nitro-3-(4-chlorophenyl)prop-2-en-1-ol] lies strictly below 30 µM
Return: 1 (yes)

Enquiry: Confirm or reject: IC50 of Cc1ccc(C=C[N+](=O)[O-])cc1 [Compound 1c, 1-methyl-4-(2-nitrovinyl)benzene] lies strictly below 30 µM
Return: 0 (no)

Enquiry: Confirm or reject: IC50 of Cc1ccc(C=C(CC(C)C)[N+](=O)[O-])cc1 [Compound 6a] lies strictly below 30 µM
Return: 0 (no)

Enquiry: Confirm or reject: IC50 of COc1ccc(C=C(CO)[N+](=O)[O-])cc1 [Compound 2d] lies strictly below 30 µM
Return: 1 (yes)

---

# Tested System: 20S proteasome ChT-L activity (Homo sapiens, UniProt P28074)
# Construct: This assay measures the ChT-L protease activity in cultured cells; endogenous in cells; host or cells: MCF-7 and PC-3 cells
# Test Method Notes: Cell-based 20S proteasome ChT-L inhibition assay in PC-3 cells
# Test Parameters: PC-3 cells, percent inhibition at 25 µM; ChT-L activity, LLVY-R110 substrate; read-out: 20S proteasome inhibition, Inhibition [%] PC-3
# Protocol: Cell-based proteasome inhibition assay The effect of the derivatives on the 20S proteasome activity was determined using the 20S proteasome activity assay kit from Sigma (USA). […] MCF-7 and PC-3 cells were pretreated with different concentrations of corresponding compounds and proteasome activities were determined according to the manufacturer′s protocol. […] All data were calculated by subtracting the blank control.
Provide the reported inhibition at 25 µM of each item.
Hi! Could you send only the number? It should be in %, unit omitted.

# O=[N+]([O-])C=Cc1ccc(Cl)cc1 [Compound 1b, 1-chloro-4-(2-nitrovinyl)benzene] with 20S proteasome ChT-L activity (Homo sapiens, UniProt P28074): inhibition at 25 µM is 84.3

# COc1ccc(C=C(CC(C)C)[N+](=O)[O-])cc1 [Compound 6b] with 20S proteasome ChT-L activity (Homo sapiens, UniProt P28074): inhibition at 25 µM is 50.2

# COc1ccc(C=C(Cc2ccccc2)[N+](=O)[O-])cc1 [Compound 4d, 3-(4-methoxyphenyl)-2-nitroallylbenzene] with 20S proteasome ChT-L activity (Homo sapiens, UniProt P28074): inhibition at 25 µM is 54.4

# Cc1ccc(C=C(CC(C)C)[N+](=O)[O-])cc1 [Compound 6a] with 20S proteasome ChT-L activity (Homo sapiens, UniProt P28074): inhibition at 25 µM is 40.3

# O=[N+]([O-])C(=Cc1ccccc1)CO [Compound 2a, 2-Nitro-3-phenylprop-2-en-1-ol] with 20S proteasome ChT-L activity (Homo sapiens, UniProt P28074): inhibition at 25 µM is 72.4

# COc1ccc(C=C[N+](=O)[O-])cc1 [Compound 1d, 1-methoxy-4-(2-nitrovinyl) benzene] with 20S proteasome ChT-L activity (Homo sapiens, UniProt P28074): inhibition at 25 µM is 84.5

---

# Tested System: 20S proteasome ChT-L activity (Homo sapiens)
# Construct: This assay measures the ChT-L protease activity in cultured cells; endogenous in cells; host or cells: MCF-7 and PC-3 cells
# Test Method Notes: Cell-based 20S proteasome ChT-L inhibition assay in MCF-7 cells
# Test Parameters: MCF-7 cells; ChT-L activity, LLVY-R110 substrate
Threshold check on IC50: strictly below 4 µM is Yes; on or above 4 µM is No.

Enquiry: Confirm or reject: IC50 of COc1ccc(C=C(CO)[N+](=O)[O-])cc1 [Compound 2d] lies strictly below 4 µM
Return: Yes

Enquiry: Confirm or reject: IC50 of Cc1ccc(C=C(CC(C)C)[N+](=O)[O-])cc1 [Compound 6a] lies strictly below 4 µM
Return: No

Enquiry: Confirm or reject: IC50 of O=[N+]([O-])C=Cc1ccc(Cl)cc1 [Compound 1b, 1-chloro-4-(2-nitrovinyl)benzene] lies strictly below 4 µM
Return: No

Enquiry: Confirm or reject: IC50 of O=[N+]([O-])C(=Cc1ccccc1)Cc1ccccc1 [Compound 4a, 3-(phenyl)-2-nitroallylbenzene] lies strictly below 4 µM
Return: No

Enquiry: Confirm or reject: IC50 of O=[N+]([O-])C(=Cc1ccc(Cl)cc1)CO [Compound 2b, 2-Nitro-3-(4-chlorophenyl)prop-2-en-1-ol] lies strictly below 4 µM
Return: No

Enquiry: Confirm or reject: IC50 of CN(C)c1ccc(C=C[N+](=O)[O-])cc1 [Compound 1e] lies strictly below 4 µM
Return: No

Enquiry: Confirm or reject: IC50 of COc1ccc(C=C[N+](=O)[O-])cc1 [Compound 1d, 1-methoxy-4-(2-nitrovinyl) benzene] lies strictly below 4 µM
Return: Yes

Enquiry: Confirm or reject: IC50 of CN(C)c1ccc(C=C(Cc2ccccc2)[N+](=O)[O-])cc1 [Compound 4e] lies strictly below 4 µM
Return: No

Enquiry: Confirm or reject: IC50 of O=[N+]([O-])C(=Cc1ccccc1)CO [Compound 2a, 2-Nitro-3-phenylprop-2-en-1-ol] lies strictly below 4 µM
Return: Yes

Enquiry: Confirm or reject: IC50 of O=[N+]([O-])C(=Cc1ccc(Cl)cc1)Cc1ccccc1 [Compound 4b, 3-(4-chlorophenyl)-2-nitroallylbenzene] lies strictly below 4 µM
Return: No

Enquiry: Confirm or reject: IC50 of Cc1ccc(C=C(Cc2ccccc2)[N+](=O)[O-])cc1 [Compound 4c, 3-(4-methylphenyl)-2-nitroallylbenzene] lies strictly below 4 µM
Return: No

Enquiry: Confirm or reject: IC50 of Cc1ccc(C=C[N+](=O)[O-])cc1 [Compound 1c, 1-methyl-4-(2-nitrovinyl)benzene] lies strictly below 4 µM
Return: No

Enquiry: Confirm or reject: IC50 of COc1ccc(C=C(CC(C)C)[N+](=O)[O-])cc1 [Compound 6b] lies strictly below 4 µM
Return: Yes

Enquiry: Confirm or reject: IC50 of O=[N+]([O-])C=Cc1ccccc1 [Compound 1a, (2-nitrovinyl)benzene] lies strictly below 4 µM
Return: Yes

Enquiry: Confirm or reject: IC50 of COc1ccc(C=C(Cc2ccccc2)[N+](=O)[O-])cc1 [Compound 4d, 3-(4-methoxyphenyl)-2-nitroallylbenzene] lies strictly below 4 µM
Return: Yes

Enquiry: Confirm or reject: IC50 of Cc1ccc(C=C(CO)[N+](=O)[O-])cc1 [Compound 2c, 2-Nitro-3-(4-tolyl)prop-2-en-1-ol] lies strictly below 4 µM
Return: Yes

---

# System: PC-3 cells
# Test Method Notes: Cell viability (MTT) assay, PC-3
# Type: cell-based
# Test Parameters: Homo sapiens, PC-3, 48 h, read-out: Cell cytotoxicity assay IC50 PC-3
Provide the reported pIC50 of each item.
Would you please state pIC50, meaning minus log10 of the concentration in mol/L, as a bare number?

Given item COc1ccc(C=C(CO)[N+](=O)[O-])cc1 [Compound 2d] , the value recorded as its pIC50 is 4.49

Given item O=[N+]([O-])C(=Cc1ccccc1)Cc1ccccc1 [Compound 4a, 3-(phenyl)-2-nitroallylbenzene] , the value recorded as its pIC50 is 4.31

Given item Cc1ccc(C=C(Cc2ccccc2)[N+](=O)[O-])cc1 [Compound 4c, 3-(4-methylphenyl)-2-nitroallylbenzene] , the value recorded as its pIC50 is 4.20

Given item Cc1ccc(C=C(CO)[N+](=O)[O-])cc1 [Compound 2c, 2-Nitro-3-(4-tolyl)prop-2-en-1-ol] , the value recorded as its pIC50 is 4.33
